Data provenance: ChEMBL document CHEMBL5360624

- MEASURED TARGET: SWI/SNF-related matrix-associated actin-dependent regulator of chromatin subfamily A member 2 (Homo sapiens)
- Sequence (P51531 whole entry): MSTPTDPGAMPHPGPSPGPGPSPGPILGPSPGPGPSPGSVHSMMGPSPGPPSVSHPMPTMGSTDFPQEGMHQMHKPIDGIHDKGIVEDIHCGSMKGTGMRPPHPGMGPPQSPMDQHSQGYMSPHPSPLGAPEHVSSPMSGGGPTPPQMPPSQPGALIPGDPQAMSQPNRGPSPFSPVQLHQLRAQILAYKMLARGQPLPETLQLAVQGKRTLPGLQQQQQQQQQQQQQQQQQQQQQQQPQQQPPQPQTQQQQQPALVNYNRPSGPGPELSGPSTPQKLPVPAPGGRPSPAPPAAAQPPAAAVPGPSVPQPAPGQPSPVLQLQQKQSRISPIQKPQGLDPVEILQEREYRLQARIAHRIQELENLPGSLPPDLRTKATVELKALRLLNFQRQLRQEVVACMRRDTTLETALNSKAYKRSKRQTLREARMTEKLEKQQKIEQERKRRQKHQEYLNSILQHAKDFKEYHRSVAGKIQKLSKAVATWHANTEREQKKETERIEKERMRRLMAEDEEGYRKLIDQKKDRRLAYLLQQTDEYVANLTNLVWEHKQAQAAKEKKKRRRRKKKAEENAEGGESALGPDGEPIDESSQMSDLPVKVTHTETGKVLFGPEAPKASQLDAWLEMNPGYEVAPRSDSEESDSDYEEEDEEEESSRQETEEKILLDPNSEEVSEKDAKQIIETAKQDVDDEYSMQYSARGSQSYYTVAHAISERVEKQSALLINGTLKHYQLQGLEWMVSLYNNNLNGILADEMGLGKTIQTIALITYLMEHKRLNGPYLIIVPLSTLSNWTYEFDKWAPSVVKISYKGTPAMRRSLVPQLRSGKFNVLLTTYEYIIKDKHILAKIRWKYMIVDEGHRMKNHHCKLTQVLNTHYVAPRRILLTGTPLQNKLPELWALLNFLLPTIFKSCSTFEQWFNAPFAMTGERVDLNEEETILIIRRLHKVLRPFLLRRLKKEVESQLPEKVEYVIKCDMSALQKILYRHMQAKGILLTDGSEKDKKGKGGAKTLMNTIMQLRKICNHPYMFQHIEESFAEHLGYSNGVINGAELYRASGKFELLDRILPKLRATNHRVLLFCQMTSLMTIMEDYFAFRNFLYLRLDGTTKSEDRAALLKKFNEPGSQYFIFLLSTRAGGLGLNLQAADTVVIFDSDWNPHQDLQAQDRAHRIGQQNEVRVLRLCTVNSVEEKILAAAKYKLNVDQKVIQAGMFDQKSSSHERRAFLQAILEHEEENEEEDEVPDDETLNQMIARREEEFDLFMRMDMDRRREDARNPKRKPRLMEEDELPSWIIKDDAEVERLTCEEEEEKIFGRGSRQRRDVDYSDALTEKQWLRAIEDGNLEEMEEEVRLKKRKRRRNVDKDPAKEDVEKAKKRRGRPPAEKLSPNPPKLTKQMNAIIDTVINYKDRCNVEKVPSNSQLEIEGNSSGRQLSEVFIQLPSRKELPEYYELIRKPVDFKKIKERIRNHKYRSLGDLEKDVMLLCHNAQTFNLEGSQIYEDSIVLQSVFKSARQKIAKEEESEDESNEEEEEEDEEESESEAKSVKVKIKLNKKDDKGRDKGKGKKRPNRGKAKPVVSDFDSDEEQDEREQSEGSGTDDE
ASSAY METRIC: Kd
Be sure to follow the number with its unit.

Any idea what Kd was measured for `O=c1nc2n(C3CCCC3)c3cc(C4CCNCC4)ccc3n2c2cccc(Br)c12` ?
46 nM
